experiment: cytotoxicity in HPDE-C7 cells, cell-based, fluorescence, HTS (AID 430); settings: HPDE-C7 pancreatic duct cells viability, at 10 µM;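 note: cells exposed to compound for 48 hours before viability readout; 0% = vehicle and 100% = reference cytotoxic drug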
Among all 63,000 compounds or so, about 1,100 (1.7%) were called active. Cut-off read from the data, not from the text of the source: active = cytotoxicity above about 50%; inactive = the rest. For the sample, actives were picked, then their nearest neighbours and some compounds at random. Results with a measured potency or affinity are listed apart.
Valid outcomes are listed here; reply with one: active, inactive

q: Answer briefly: the call reported for `CCNc1ccc(C(=O)OCC)cc1NC(=O)c1cccc(N(C)C)c1` in this assay.
a: active

q: What is the recorded call for this compound in the test? `Cc1ccc(C(=O)CSc2nnc(-c3ccco3)n2Cc2ccccc2)cc1`
a: inactive

q: Record request — test call for `O=C(NCc1ccco1)c1cc2ccccc2c(=O)o1`
a: inactive

q: For this compound, state the assay outcome: `O=C(NCc1ccc(F)cc1)c1ccc(CS(=O)(=O)Cc2ccccc2F)o1`
a: inactive

q: Status in this test for `CCN(CC)S(=O)(=O)c1ccc(Nc2cc(C)nc3ncnn23)cc1` ?
a: inactive

q: Could you check what this test reported for `CCCCOc1ccc(-c2c(C#N)c(N)nc(SCC(N)=O)c2C#N)cc1` ?
a: active

q: Called result for `CCCCOC(=O)CSc1nc(N)c(C#N)c(-c2ccc(OCC)cc2)c1C#N`
a: inactive

q: Just curious, what result did `Cc1ccc(C(N)=O)cc1S(=O)(=O)Nc1cccc(C)c1C` get here?
a: inactive

q: What call does the record list for `c1ccc(Nc2ccccc2Nc2ccccn2)nc1` ?
a: inactive

q: Name the outcome recorded for `CCOC(=O)CC(=O)CSc1nc(N)c(C#N)c(-c2ccc(Cl)cc2)c1C#N` in the assay.
a: active

q: How was `CC(C)c1cc(C(=O)Nc2cccc(Cl)c2)no1` classified in this test?
a: inactive

q: Write down the call the test reported for this compound. Item: O=C(NCc1ccco1)C1CCCCN1S(=O)(=O)c1ccc(F)cc1 (configuration not stated)
a: inactive

q: Record lookup: outcome of this test for `Cn1c(-c2nonc2NC(=O)c2ccc(C(C)(C)C)cc2)nc2ccccc21` ?
a: inactive

q: Identify the outcome logged in this assay for the compound shown: `CCNc1ccc(C(=O)OCC)cc1NC(=O)c1cccc(S(=O)(=O)N2CCOCC2)c1`
a: inactive

q: Just curious, what result did `CCOc1ccc(S(=O)(=O)n2cnc3cc(C)c(C)cc32)cc1` get here?
a: inactive

q: Which result was noted for this compound in the test: `CCOC(=O)CC(=O)CSc1nc(N)c(C#N)c(-c2ccc(F)cc2)c1C#N`
a: inactive

q: State the result this test recorded for CCCCS(=O)CC(COCc1ccccc1)OC(=O)CSc1nc(C)cc(C)n1 (configuration not stated) .
a: inactive

q: Hello, I am checking results. What call was entered for `Cc1[nH]c2ccc(-c3nnc(SCC(=O)c4ccc(F)cc4)o3)cc2c1C` ?
a: inactive

q: For `CCOC(=O)CSc1nc(N)c(C#N)c(-c2ccc(OC)cc2)c1C#N` , what call appears in the results of this test?
a: inactive

q: Query: recorded result category for O=C(COC(=O)C1c2ccccc2Oc2ccccc21)NC1CCS(=O)(=O)C1 (configuration not stated) in this test
a: inactive

q: Write down the call the test reported for this compound. Item: CC12CC(NC(=O)N1c1cccc(C(=O)NCc3ccc4c(c3)OCO4)c1)c1cc(Cl)ccc1O2 (configuration not stated)
a: inactive

q: Outcome? `Oc1cccc2ccc(Nc3ccccn3)nc12`
a: active

* * *

assay: cytotoxicity in HPDE-C7 cells, cell-based, fluorescence, HTS (AID 430); conditions: HPDE-C7 pancreatic duct cells viability, at 10 µM
Hit rate of the full screen: of about 63,000 compounds, about 1,100 (1.7%) were called active. No stated cut-off is given here; in the data, active means cytotoxicity above about 50%; inactive means the rest. Shown is part of a subset that was picked to be rich in actives. Results with a measured potency or affinity are listed apart.
Write down the outcome that applies. Available outcomes: active, inactive

q: // return assay outcome for CC(=O)c1cccc(NC2c3ccccc3C(=O)N2Cc2ccc3c(c2)OCO3)c1 (stereo not given)
a: inactive

q: Please indicate how the test categorized `Cc1ccc(S(=O)(=O)Nc2nc3ccccc3nc2NCc2ccco2)cc1C` .
a: inactive

q: Called result for `O=C(Nc1ccccc1C(F)(F)F)N1CCN(c2ccc3nnc(-c4ccc(F)cc4)n3n2)CC1`
a: inactive

q: Could you kindly confirm the outcome this assay logged for `CCN(C(=O)CSc1nc2nc(C)cc(C)n2n1)c1cccc(C)c1` ?
a: inactive

q: Entry `Cc1ccc(-c2cc(-c3ccccc3Cl)[nH]n2)c(O)c1` : call = ?
a: active

* * *

assay: cytotoxicity in HPDE-C7 cells, cell-based, fluorescence, HTS (AID 430); settings: HPDE-C7 pancreatic duct cells viability, at 10 µM, hits give high values;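 note: cells exposed to compound for 48 hours before viability readout; 0% = vehicle and 100% = reference cytotoxic drug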
Hit rate of the full screen: of about 63,000 compounds, about 1,100 (1.7%) were called active. The sample as a whole holds a higher share of actives than the screen did. Measured potencies and affinities stand elsewhere.
Provide the reported cytotoxicity of each item.
Numbers only here, please. The scale is %.

q: Provide one value: measured cytotoxicity of CC1(C)N=C(C(=O)c2ccccc2)N(O)C1(C)O (stereo unspecified)
a: -11.9

q: Give the reported value of cytotoxicity for this record: `CCOC(=O)CCn1nc(-c2ccccc2)cc1N`
a: -7.8

q: Please give the documented cytotoxicity of `CCOC(=O)c1nc2ccccc2s1`
a: -0.3

q: Answer with reported cytotoxicity of `C=C(C)CSc1nc2ncccc2[nH]1`
a: -0.6

q: Fill in reported cytotoxicity for this entry: `COc1ccccc1-c1cc(C(F)(F)F)nc(S(=O)(=O)CCCC(=O)Nc2cc(C)on2)n1`
a: 38.2

q: Query cytotoxicity for COCC(C)NC(=O)CCS(=O)(=O)c1nc(-c2ccc(OC)cc2)cc(C(F)(F)F)n1 (stereo unspecified)
a: 66.1

q: Recall and state the measured cytotoxicity for `Cc1cc(NC(=O)CCCS(=O)(=O)c2nc(-c3cccs3)cc(C(F)(F)F)n2)no1` .
a: 3.6

q: Fill in reported cytotoxicity for this entry: O=C1CC(N2CCOCC2)C(=O)N1c1ccc2c(c1)OCO2 (stereo unspecified)
a: -4.6

q: Specify reported cytotoxicity for the molecule shown: `COC(=O)Cc1cc(=O)n(-c2nc3ccccc3s2)[nH]1`
a: 74.2

q: Report cytotoxicity, nothing else, for this molecule: `O=C(Cn1nnc(-c2ccc(N3CCOCC3)cc2)n1)OC1CCCCC1`
a: -25.2

q: Return value of cytotoxicity for input `CCOC(=O)CS(=O)(=O)c1ccc2ccccc2c1` , no commentary.
a: -10.2

* * *

assay: cytotoxicity in HPDE-C7 cells, cell-based, fluorescence, HTS (AID 430); conditions: HPDE-C7 pancreatic duct cells viability, at 10 µM, hits give high values;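 note: cells exposed to compound for 48 hours before viability readout; 0% = vehicle and 100% = reference cytotoxic drug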
Among all 63,000 compounds or so, about 1,100 (1.7%) were called active. This is one part of a sample in which actives are shown more often than they occur. Measured potencies and affinities stand elsewhere.
Measure: cytotoxicity (%)
Report only the number, with the unit % understood.

q: Given the compound O=S(=O)(NCC1CCCO1)c1cccc2nsnc12 (configuration not stated) , write its reported cytotoxicity.
a: -2.4

q: Give cytotoxicity for the following compound: `COc1ccccc1NC(=O)CSc1nnnn1-c1ccc2c(c1)OCO2`
a: -9.1

q: Consider the compound `CCn1c(CSc2nccn2C)nc2cc(C(=O)O)ccc21` . State its measured cytotoxicity.
a: 2.6

q: Identify measured cytotoxicity associated with `COc1ccc(-c2nc3ccccc3c(=O)n2CCCn2ccnc2)cc1`
a: -0.2

q: Complete the entry with cytotoxicity for `COc1cccc(CN(C)C(=O)c2ccc(S(=O)(=O)N3CCCC3)cc2)c1OC`
a: -5.4

q: Identify the reported cytotoxicity for the following entry. `Cc1nc(NC(=O)C2CC2)sc1C(=O)N1CCCCC1`
a: 11.8

q: For the compound `CCCOc1ccc(S(=O)(=O)NCCN2CCOCC2)c2ccccc12` , give its measured cytotoxicity value.
a: -13.1

q: Please give the documented cytotoxicity of `COc1ccc2sc(C)nc2c1NC(C)=O`
a: -5.3

q: Report measured cytotoxicity; entry is CCC(C)(C)NC(=O)C(c1ccccc1F)N(Cc1ccco1)C(=O)Cn1nnc2ccccc21 (configuration not stated)
a: 2.4

q: Return reported cytotoxicity. Input compound: `O=C(NC1CCCC1)c1cnc2n(c1=O)CCS2`
a: -10.2

q: Quick one: give measured cytotoxicity for COc1ccccc1Nc1nc(C2(C)CCC(=O)O2)cs1 (configuration not stated)
a: 6.8

q: Could you please provide reported cytotoxicity for `CCc1oc2ccccc2c1C(=O)CCN1CCCCC1` ? Thanks!
a: -17.7

* * *

experiment: cytotoxicity in HPDE-C7 cells, cell-based, fluorescence, HTS (AID 430); details: HPDE-C7 pancreatic duct cells viability, at 10 µM, hits give high values;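 note: cells exposed to compound for 48 hours before viability readout; 0% = vehicle and 100% = reference cytotoxic drug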
Among all 63,000 compounds or so, about 1,100 (1.7%) were called active. For the sample, actives were picked, then their nearest neighbours and some compounds at random. Entries with a potency or affinity are not part of this list.
Measure: cytotoxicity (%)
The reply should contain only the number, in %.

q: Give cytotoxicity for the following molecule: `CCc1cc(=O)oc2cc(C)cc(O)c12`
a: 0

q: Dear colleague, please send me the reported cytotoxicity for `COC(=O)c1ccc(Cl)c(NC(=O)CN2CCOCC2)c1` when you can.
a: 0.1

q: Provide measured cytotoxicity value, entry: `COc1cc(Br)cc(/C=N/c2ncn[nH]2)c1O`
a: 88.6

q: Return cytotoxicity for the following molecule: `COc1cccc(C=Nc2cc(C)on2)c1O`
a: -3.2

q: Name the recorded cytotoxicity of the item `CCC(=O)N=c1sc2c(OC)ccc(OC)c2n1C` in your answer.
a: 1.2

q: Answer with the recorded cytotoxicity of `COc1cnn(-c2ccccc2)c(=O)c1N(C)C` only.
a: -1.2

q: Answer with reported cytotoxicity of O=C(NCCc1ccccc1)C1CCCN(S(=O)(=O)c2cccc3nsnc23)C1 (stereo not given)
a: -0.3

q: Give recorded cytotoxicity. COc1cc(C2C(C#N)=C(C)NC3=C2C(=O)CC(C)(C)C3)ccc1O (stereo not given)
a: -9.2

q: Give cytotoxicity for O=C(NCC1CCCO1)C1CCCN(S(=O)(=O)c2cccc3nsnc23)C1 (stereo not given)
a: -15

q: In one line, give reported cytotoxicity of the entry CCOP(=O)(c1ccc(N(C)C)cc1)C(O)c1cc(OC)c(OC)c(OC)c1 (stereo not given) .
a: 5.9

q: Please give the documented cytotoxicity of `CCCCc1cc(=O)oc2cc(C)c(CN3CCCC3)c(O)c12`
a: -12.4

q: Hello, please tell me recorded cytotoxicity for this one: `Cc1nc(SCC#N)c2c3c(sc2n1)CCC3`
a: -19

q: Give the reported value of cytotoxicity for this record: `CCN1C(=O)c2cccc3c(NC(=O)c4ccc(S(=O)(=O)N(C)C)cc4)ccc1c23`
a: -24.8

q: # return recorded cytotoxicity for input `COc1cc(Br)cc(CN2CCN(C=O)CC2)c1O`
a: -1.6

q: Quote cytotoxicity reported for `Nc1nonc1C(=O)NCCNC(=O)c1ccccc1F` please.
a: -4.8

q: Identify the reported cytotoxicity for the following entry. `COc1cccc(C=NCCNC(=O)c2nonc2N)c1O`
a: 9.3

q: Identify cytotoxicity associated with the molecule `CC(C)CCn1c(SCC(=O)OCn2nnc3ccccc3c2=O)nc2ccccc2c1=O`
a: -1.3

q: Look up cytotoxicity of `Nc1nonc1C(=O)NCCN=Cc1cc(Cc2ccccc2)cc(Br)c1O` and report it.
a: 87.2

q: Hello, please tell me recorded cytotoxicity for this one: `O=c1c2ccccc2c(/C=N/c2ncn[nH]2)c(O)n1Cc1ccccc1`
a: 5.2

q: State its cytotoxicity: `O=C(Nc1ccc(N2CCOCC2)c(Cl)c1)c1ncn[nH]1`
a: -2.8

q: Give cytotoxicity for `Cn1c(=O)cc(OCC(=O)N2CCCc3ccccc32)c2ccccc21`
a: -9.1

q: Name the recorded cytotoxicity of the molecule listed here: `CCCCCc1cc(O)c2c(C)cc(=O)oc2c1`
a: 50.3

q: Read off the recorded cytotoxicity for `N=c1cc(C2(O)CCCCC2)n2c(nc3ccccc32)s1`
a: 51.1

q: Give reported cytotoxicity value for `CSc1nc2sc3c(c2c2nnnn12)CCC3`
a: 7.6

q: Give me measured cytotoxicity, please, for this molecule: COC(=O)C1=C(C)N(CC2CCCO2)C(=O)C1 (stereo not given)
a: 6
